# TARGET: human Gal-3 (hGal-3) (Homo sapiens (Human))
# Sequence (P17931 whole entry): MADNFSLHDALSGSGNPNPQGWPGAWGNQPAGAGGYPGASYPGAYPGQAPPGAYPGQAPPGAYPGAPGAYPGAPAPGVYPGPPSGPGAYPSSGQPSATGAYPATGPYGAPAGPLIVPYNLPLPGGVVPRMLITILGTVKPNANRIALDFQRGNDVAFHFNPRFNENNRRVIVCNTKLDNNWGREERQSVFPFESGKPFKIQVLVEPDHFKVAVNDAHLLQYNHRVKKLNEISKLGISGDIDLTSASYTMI
Examples of molecules with documented IC50 follow.
OBSERVED PROPERTY: IC50 (nM)

STRUCTURE NOTATION: CO[C@@H]1[C@@H](n2cc(-c3cc(F)c(F)c(F)c3)nn2)[C@@H](O)[C@@H](CO)O[C@@H]1Cn1cc(C2CCOCC2)nn1
TARGET: human Gal-3 (hGal-3) (Homo sapiens (Human))
OBSERVED PROPERTY: IC50
ENDPOINT RESULT: 160
--
STRUCTURE NOTATION: COc1ccc(-c2cn([C@H]3[C@@H](O)[C@@H](CO)O[C@H](Cc4cc(C(C)(C)C)on4)[C@@H]3OC)nn2)c(F)c1F
TARGET: human Gal-3 (hGal-3) (Homo sapiens (Human))
OBSERVED PROPERTY: IC50
ENDPOINT RESULT: 100
--
STRUCTURE NOTATION: CO[C@@H]1[C@@H](n2cc(-c3ccc(Cl)c(F)c3F)nn2)[C@@H](O)[C@@H](CO)O[C@@H]1Cc1cc(C2(O)CCC2)no1
TARGET: human Gal-3 (hGal-3) (Homo sapiens (Human))
OBSERVED PROPERTY: IC50
ENDPOINT RESULT: 84
